# credit: patent US20240116997A1

Measured EC50 (pM), HEK-Blue IL-18R reporter assay values are reported for all entries that follow.
Biological target: T1, IL-18 receptor (IL-18Rαβ) on cells (UniProt Q13478 19-541; O95256 20-599, limits assumed)
T1 sequence (looked up) 1: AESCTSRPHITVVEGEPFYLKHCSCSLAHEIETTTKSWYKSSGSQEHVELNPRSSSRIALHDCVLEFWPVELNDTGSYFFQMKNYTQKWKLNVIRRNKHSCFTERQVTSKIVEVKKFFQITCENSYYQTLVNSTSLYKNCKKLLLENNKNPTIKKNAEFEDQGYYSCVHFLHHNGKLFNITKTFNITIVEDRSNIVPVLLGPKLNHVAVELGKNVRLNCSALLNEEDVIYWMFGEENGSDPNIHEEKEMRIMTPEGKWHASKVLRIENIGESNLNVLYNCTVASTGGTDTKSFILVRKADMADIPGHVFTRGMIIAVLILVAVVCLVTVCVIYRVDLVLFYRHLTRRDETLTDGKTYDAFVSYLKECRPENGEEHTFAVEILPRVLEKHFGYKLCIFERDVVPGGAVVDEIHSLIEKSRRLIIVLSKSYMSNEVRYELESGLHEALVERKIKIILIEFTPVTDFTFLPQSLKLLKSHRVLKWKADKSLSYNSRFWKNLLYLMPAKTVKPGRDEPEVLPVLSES
T1 sequence (looked up) 2: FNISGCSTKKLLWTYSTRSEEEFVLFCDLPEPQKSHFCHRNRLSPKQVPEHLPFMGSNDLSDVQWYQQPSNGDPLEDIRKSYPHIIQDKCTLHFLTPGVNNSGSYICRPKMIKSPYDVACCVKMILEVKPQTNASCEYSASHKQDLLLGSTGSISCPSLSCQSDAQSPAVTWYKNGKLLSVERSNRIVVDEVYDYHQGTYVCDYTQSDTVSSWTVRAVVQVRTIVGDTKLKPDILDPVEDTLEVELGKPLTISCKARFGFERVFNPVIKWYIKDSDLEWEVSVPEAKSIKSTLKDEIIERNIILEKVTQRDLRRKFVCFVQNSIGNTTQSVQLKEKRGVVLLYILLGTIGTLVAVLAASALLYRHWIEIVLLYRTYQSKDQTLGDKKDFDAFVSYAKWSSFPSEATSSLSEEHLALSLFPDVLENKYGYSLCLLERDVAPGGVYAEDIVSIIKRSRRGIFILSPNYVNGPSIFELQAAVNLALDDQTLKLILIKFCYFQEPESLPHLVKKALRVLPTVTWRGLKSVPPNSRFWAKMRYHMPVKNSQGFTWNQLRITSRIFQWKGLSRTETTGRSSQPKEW
Assay: cell-based or functional assay
Don't forget the unit after the number, please.

C174 (K8L, E6K, V11I, C38A, K53A, T63A, C76A, C127A) (ligand) YFGKLKSLLSIIRNLNDQVLFIDQGNRPLFEDMTDSDARDNAPRTIFIISMYADSQPRGMAVAISVKCEKISTLSAENKIISFKEMNPPDNIKDTKSDIIFFQRSVPGHDNKMQFESSSYEGYFLAAEKERDLFKLILKKEDELGDRSIMFTVQNED: 0.29 pM

Next binder, EC50 (pM), HEK-Blue IL-18R reporter assay to be filled in.
[in] Record request: EC50 (pM), HEK-Blue IL-18R reporter assay value, item C176 (E6K, V11I, C38A, I49M, K53A, T63A, C76A, C127A) (ligand) YFGKLKSKLSIIRNLNDQVLFIDQGNRPLFEDMTDSDARDNAPRTIFIMSMYADSQPRGMAVAISVKCEKISTLSAENKIISFKEMNPPDNIKDTKSDIIFFQRSVPGHDNKMQFESSSYEGYFLAAEKERDLFKLILKKEDELGDRSIMFTVQNED
[out] 0.07 pM
